Taken from ChEMBL document CHEMBL1139816.

- subject.of.test: Melanocortin receptor 5 (Homo sapiens, UniProt P33032)
- Sequence (P33032 whole entry): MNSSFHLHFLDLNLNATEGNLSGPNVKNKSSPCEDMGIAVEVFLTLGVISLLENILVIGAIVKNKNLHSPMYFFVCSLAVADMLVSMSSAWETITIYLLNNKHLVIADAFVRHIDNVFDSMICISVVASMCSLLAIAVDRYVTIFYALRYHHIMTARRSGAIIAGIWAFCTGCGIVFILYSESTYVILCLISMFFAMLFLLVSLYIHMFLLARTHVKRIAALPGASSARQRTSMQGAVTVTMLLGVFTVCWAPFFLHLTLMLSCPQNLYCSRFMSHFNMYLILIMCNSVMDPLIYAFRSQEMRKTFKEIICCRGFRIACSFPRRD
- test.summary: […] at human MC5R assessed as stimulation of cAMP production
- Format: functional
- Set-up: concentration or dose not given beside the values
endpoint.label: Activity (%)

N#CCC1(C2CCCC2)CCN(C(=O)[C@H](Cc2ccc(Cl)cc2)NC(=O)[C@H]2Cc3ccccc3CN2)CC1 :: 40
CCCCC1(CC#N)CCN(C(=O)[C@H](Cc2ccc(Cl)cc2)NC(=O)[C@H]2Cc3ccccc3CN2)CC1 :: 21

(I) CCC(C)C1(Cc2nnnn2C)CCN(C(=O)[C@H](Cc2ccc(Cl)cc2)NC(=O)[C@H]2Cc3ccccc3CN2)CC1 (stereo not given in full)
(II) Cn1nnnc1CC1(CC(C)(C)C)CCN(C(=O)[C@H](Cc2ccc(Cl)cc2)NC(=O)[C@H]2Cc3ccccc3CN2)CC1
(III) Cn1nnnc1CC1(C2CCCCC2)CCN(C(=O)[C@H](Cc2ccc(Cl)cc2)NC(=O)[C@H]2Cc3ccccc3CN2)CC1
Exam item: list the entries in increasing order of Activity. The response must list the labels following the requested ordering.
II, I, III
(II: 27%, I: 39%, III: 57%)
